Tested on: HOP-92 NSCLC
assay.details: NCI tumour cell line growth inhibition, 48 h
readout.name: TGI

[
  {
    "molecule": "CCN(CC)CC(O)c1cc(-c2ccc(Cl)cc2)nc2cc(Cl)ccc12 (stereo unspecified)",
    "target.or.system": "HOP-92 NSCLC",
    "measured": "7.38 µM"
  },
  {
    "molecule": "O=c1[nH]c(-c2ccc([N+](=O)[O-])cc2)nc2ccc(Cl)cc12",
    "target.or.system": "HOP-92 NSCLC",
    "measured": "84.2 µM"
  },
  {
    "molecule": "Cc1cc(N(CCC#N)CCC#N)ccc1CC1N=C(c2ccccc2)OC1=O (stereo unspecified)",
    "target.or.system": "HOP-92 NSCLC",
    "measured": "> 100 µM"
  }
]

(Q) Respond only with TGI recorded for CP(=O)(O)C(N)c1ccccc1 (stereo unspecified)
(A) > 100 µM

(Q) Let me know recorded TGI for COc1cc(C2c3cc4c(cc3OC(NNc3ccccc3)C2C)OCO4)cc(OC)c1O (stereo unspecified) , thanks.
(A) 24.5 µM

(Q) For the molecule "Cc1csc2c(=O)n(COCc3ccccc3)c(=O)[nH]c12" , report TGI.
(A) > 100 µM

###

Entries and their TGI values follow.
System: ACHN renal
assay.details: NCI tumour cell line growth inhibition, 48 h

Examples with their reported TGI follow.
[
  {
    "compound": "O=C1c2ccccc2-c2ccccc2C1(Cl)Cl",
    "readout.name": "TGI",
    "measured": "3.53 µM"
  },
  {
    "compound": "NNc1ncnc2cccc(Cl)c12",
    "readout.name": "TGI",
    "measured": "> 100 µM"
  },
  {
    "compound": "CCOP(=O)(OCC)C(C)(CC)/N=C(\\N)NC#N (stereo unspecified)",
    "readout.name": "TGI",
    "measured": "> 100 µM"
  },
  {
    "compound": "CON(C(=O)OC(C)(C)C)c1ccccc1",
    "readout.name": "TGI",
    "measured": "> 100 µM"
  },
  {
    "compound": "CN(C)CCCN=c1c2ccccc2n(C)c2[nH]c(=O)n(C)c(=O)c12",
    "readout.name": "TGI",
    "measured": "98.3 µM"
  }
]

(Q) Item "O=C1CCCCCCCCCCOC(=O)CCCCCCCCCCO1" : provide TGI
(A) > 100 µM

(Q) Entry "C=CCn1c(=O)c(C(=O)NC(=O)OCC)cn(C2CCCCC2)c1=O" needs its TGI filled in; supply it.
(A) > 100 µM

(Q) For the compound COC(=O)CC1NC(=O)C1C(C)(OC)OC (stereo unspecified) , give its measured TGI value.
(A) > 100 µM

(Q) Specify TGI for O=C(O)C1C2CCC(O2)C1C(=O)NCc1cccnc1 (stereo unspecified) and stop.
(A) > 100 µM

(Q) Recall and state the measured TGI for COC(=O)C1=Cc2cn(S(=O)(=O)c3ccc(C)cc3)c3cccc(c23)C(C=C(C)C)N1C(C)=O (stereo unspecified) .
(A) > 100 µM

(Q) Tell me TGI reported for "CC1=C(C(=O)NCCCN(CCO)CCO)CC(C(=O)NCCCN(CCO)CCO)=C(C)N1"
(A) > 100 µM
